Values were extracted from PubChem BioAssay (NCI).

- Test system: MOLT-4 leukemia
- test-method-notes: NCI tumour cell line growth inhibition, 48 h
Could you please report measured TGI for the items listed next?

Sample "Cn1cc(C2=C(c3cn(CCCN/C(N)=N\[N+](=O)[O-])c4ccccc34)C(=O)NC2=O)c2ccccc21" , system: MOLT-4 leukemia. Its TGI is > 16.4 µM

Sample ClC1(Cl)C2CCOC21n1cnc2ccccc21 (stereo unspecified) , system: MOLT-4 leukemia. Its TGI is > 100 µM

Sample COc1ccc(/C=C2/C(=O)C(c3ccccc3)N(c3ccccc3)C2=O)cc1OC (stereo unspecified) , system: MOLT-4 leukemia. Its TGI is > 10 µM

Sample NC(CSC(c1ccccc1)(c1ccccc1)c1ccc(Br)cc1)C(=O)O (stereo unspecified) , system: MOLT-4 leukemia. Its TGI is > 82.1 µM

Sample "CCCCCCOc1ccc(/C=N/Nc2cc(C)nc3ccc(Br)cc23)cc1" , system: MOLT-4 leukemia. Its TGI is 3.18 µM

Sample "O=C1COCCN1c1ccc(NCc2cn(Cc3ccc(F)cc3)c3ccccc23)cc1" , system: MOLT-4 leukemia. Its TGI is > 68.9 µM

Sample COc1ccccc1N1C(=O)/C(=C\c2ccccc2)SC1c1cc(OC)c(OC)c(OC)c1 (stereo unspecified) , system: MOLT-4 leukemia. Its TGI is > 100 µM

Sample "NCCCCNCCCNC(=O)c1csc(-c2nc(CCN)sc2Cl)n1" , system: MOLT-4 leukemia. Its TGI is > 100 µM

Sample "CN1CCN2CCN(C)CCN(CC1)CC2" , system: MOLT-4 leukemia. Its TGI is > 100 µM

Sample "COc1ccc(-c2nn(C(=O)c3cc(OC)c(OC)c(OC)c3)c3cc(N)ccc23)cc1" , system: MOLT-4 leukemia. Its TGI is 23.7 µM

Sample "Nc1c(S(=O)(=O)O)cc2c(c1Cl)C(=O)c1ccccc1C2=O" , system: MOLT-4 leukemia. Its TGI is > 100 µM

Sample "O=c1[nH]nc(-c2ccccc2)c2[nH]c3c(c12)CCCc1ccccc1-3" , system: MOLT-4 leukemia. Its TGI is 33.8 µM

Sample "O=C(/C=C/c1ccco1)c1cccc(Nc2nc(Nc3ccccc3)nc(Nc3ccccc3)n2)c1" , system: MOLT-4 leukemia. Its TGI is > 31.8 µM

Sample "COc1ccc(-c2nc3ccccc3c(=O)[nH]2)cc1OC" , system: MOLT-4 leukemia. Its TGI is > 100 µM

Sample "Oc1ccccc1/C=N/N1C(=S)N(c2ccccc2)C(=Nc2ccccc2)C1=Nc1ccccc1" , system: MOLT-4 leukemia. Its TGI is > 89.5 µM

Sample "COc1ccc(/C=C/C(=O)N[C@@H]2C(=O)N3[C@@H]2SC(C)(C)[C@@H]3C(=O)O)cc1OC" , system: MOLT-4 leukemia. Its TGI is > 100 µM

Sample "CC(C)(C)OC(=O)/C=C/[C@@H](CCC(=O)/C=C/[C@H](/C=C\CCCC(=O)O)NC1(c2ccccc2)c2ccccc2-c2ccccc21)O[Si](C)(C)C(C)(C)C" , system: MOLT-4 leukemia. Its TGI is > 100 µM

Sample CCOC(=O)C(C(=O)OCC)C(=S)NC1OC(COC(C)=O)C(OC(C)=O)C(OC(C)=O)C1OC(C)=O (stereo unspecified) , system: MOLT-4 leukemia. Its TGI is > 100 µM

Sample CC1=NN(c2cccc(S(=O)(=O)O)c2)C2(C1)SCC(=O)N2c1nc2ccccc2s1 (stereo unspecified) , system: MOLT-4 leukemia. Its TGI is > 100 µM

Sample c1ccc2c(c1)-c1nc3ccccc3cc1C2N1CCOCC1 (stereo unspecified) , system: MOLT-4 leukemia. Its TGI is > 100 µM

Sample "C=C(C=O)[C@@H]1CC=C(C=O)CC1" , system: MOLT-4 leukemia. Its TGI is > 100 µM

====

- Test system: HL-60(TB) leukemia
- test-method-notes: NCI tumour cell line growth inhibition, 48 h
Could you please report measured log10(TGI) for the items listed next?
Field: value | Transform: log10 | Quantity: TGI | Unit: µM

Looking up "CCN(CC)C(=O)N1CN(c2ccccc2)C2(CCN(CCCC3(c4ccc(F)cc4)OCCO3)CC2)C1=O" , I found its log10(TGI) recorded as 1.45

Looking up "C/C(=N\O)c1ccc(Nc2cc(-c3ccccc3)nc3c(O)cccc23)cc1" , I found its log10(TGI) recorded as 1.98

Looking up "CNC(=S)c1nnsc1N" , I found its log10(TGI) recorded as -1.16

Looking up C=CCOC1=C(OC(C)=O)C(C2COC(C)(C)O2)OC1=O (stereo unspecified) , I found its log10(TGI) recorded as 1.61

Looking up "O=C(Nc1ccccn1)c1cc2c(cc1Cl)Sc1nccn1S2(=O)=O" , I found its log10(TGI) recorded as 1.87

====

- Tested on: HCC-2998 colon
- test-method-notes: NCI tumour cell line growth inhibition, 48 h
reported-property: GI50

Looking up "COc1cccc(-c2nn(C)c3sc(C(=O)NCCN4CCN(c5ccccc5F)CC4)cc23)c1" , I found its GI50 recorded as 7.06 µM

Looking up "CCCCCCCCCCCC(=O)[O][Sn]([CH2]CCC)([CH2]CCC)[CH2]CCC" , I found its GI50 recorded as 0.0669 µM

Looking up "COc1ccc(-n2cc(-c3ccc(F)cc3)[nH]c2=O)cc1OC" , I found its GI50 recorded as > 100 µM

Looking up "Nc1c(S(=O)(=O)O)cc2c(c1Cl)C(=O)c1ccccc1C2=O" , I found its GI50 recorded as > 100 µM

Looking up "COc1cc2c(cc1OC)-c1c(c3ccc([N+](=O)[O-])cc3c(=O)n1CCCBr)C2=O" , I found its GI50 recorded as 59.7 µM

Looking up "Nc1c(C(=O)Nc2cccc3ccccc23)sc2nc3c(cc12)CCCCCC3" , I found its GI50 recorded as 2.64 µM

Looking up "O=C(/C=C/c1ccco1)c1cccc(Nc2nc(Nc3ccccc3)nc(Nc3ccccc3)n2)c1" , I found its GI50 recorded as 25.7 µM

Looking up "C=CCOc1ccc2c(c1)CC[C@@H]1[C@@H]2CC[C@]2(C)C(=O)/C(=N/O)C[C@@H]12" , I found its GI50 recorded as 1.09 µM

Looking up "Cc1cnc2n(c1=O)Cc1ccccc1CO2" , I found its GI50 recorded as 16 µM

Looking up "COc1cc(Nc2nccc(-c3cnn4ncccc34)n2)cc(OC)c1" , I found its GI50 recorded as 0.104 µM

Looking up "COc1cc(-c2nc3cc(Cl)c(Cl)cc3[nH]2)ccc1OCC(=O)N=Nc1c(O)[nH]c2ccccc12" , I found its GI50 recorded as 0.419 µM

Looking up "O=C1/C=C/[C@@H](O)[C@@H]2C[C@@H](O)C[C@H]2/C=C/CCCCO1" , I found its GI50 recorded as 0.32 µM

Looking up "Cc1cc(=O)[nH]c2c1C(=O)C(=O)C=C2" , I found its GI50 recorded as > 100 µM

Looking up OC(c1cc2c(Cl)cc(Cl)cc2c2cc(C(F)(F)F)ccc12)C1CCCCN1 (stereo not drawn) , I found its GI50 recorded as 1.64 µM

Looking up "O=C(Nc1ccc(-n2cc(-c3ccncc3)c(-c3ccc(Cl)c(O)c3)n2)cc1)c1ccc(Cl)c(C(F)(F)F)c1" , I found its GI50 recorded as 1.69 µM

Looking up "Nc1nc(-c2ccccc2Cl)cc(-c2ccc(Cl)cc2Cl)n1" , I found its GI50 recorded as 7.19 µM

Looking up "O=c1c(Br)ccc(Br)cc1Br" , I found its GI50 recorded as 3.07 µM

Looking up COc1ccc(/C=N/C2=C(C#N)C(c3ccccc3)c3ccc4ccccc4c3O2)cc1 (stereo not drawn) , I found its GI50 recorded as 0.92 µM

====

- Test system: SK-MEL-5 melanoma
- test-method-notes: NCI tumour cell line growth inhibition, 48 h; in the data active means GI50 below about 0.43 µM; inactive means the rest
Permitted responses: active, inactive

Ask | Returns: the outcome recorded for "CCCCCCOc1ccc(/C=N/Nc2cc(C)nc3ccc(Br)cc23)cc1" in this assay.
Reply | inactive

Ask | Returns: the outcome recorded for "N=C(N)c1ccc(-c2ccc(-c3ccccc3)o2)o1" in this assay.
Reply | inactive

Ask | Returns: the outcome recorded for COc1ccc2nc3c(cc2c1)C(=O)CC(C(F)(F)F)C3 (centres undefined) in this assay.
Reply | inactive

Ask | Returns: the outcome recorded for "O=c1c(-c2nc3ccccc3[nH]2)cc2ccccc2n1Cc1cn(Cc2ccc(F)cc2)nn1" in this assay.
Reply | active

====

- Test system: MDA-MB-435
- test-method-notes: NCI tumour cell line growth inhibition, 48 h
reported-property: TGI

Looking up "Nc1c(S(=O)(=O)O)cc2c(c1Cl)C(=O)c1ccccc1C2=O" , I found its TGI recorded as > 100 µM

Looking up "CCOC(=O)CCNC(=O)c1cc(C)cc2c1Oc1c(cc(C)cc1C(=O)NCCC(=O)OCC)S2" , I found its TGI recorded as > 100 µM

Looking up OC(c1cc2c(Cl)cc(Cl)cc2c2cc(C(F)(F)F)ccc12)C1CCCCN1 (stereo unspecified) , I found its TGI recorded as 4.75 µM

Looking up ClC1(Cl)C2CCOC21n1cnc2ccccc21 (stereo unspecified) , I found its TGI recorded as > 100 µM

Looking up "O=[N+]([O-])c1ccc(N/N=C\c2ccc(O)cc2O)nc1" , I found its TGI recorded as > 100 µM

Looking up O=CC1C(=O)Nc2nc3ccccc3n2C1c1ccccc1 (stereo unspecified) , I found its TGI recorded as 44.8 µM

Looking up "CN(C)C=Nc1cccc2c1NSN2" , I found its TGI recorded as > 100 µM

Looking up Nc1nc(=O)n(C2CC(O)C(CO)O2)c2nc(-c3ccc(-c4ccccc4)cc3)cnc12 (stereo unspecified) , I found its TGI recorded as > 100 µM

Looking up "NC(=O)NC(=O)c1cccc(C(=O)NC(N)=O)n1" , I found its TGI recorded as > 100 µM

Looking up "Cc1csc(CP(=O)(OC(C)C)OC(C)C)n1" , I found its TGI recorded as > 100 µM

Looking up "CN(C)CCNc1nc2c(c(=O)n(C)c(=O)n2C)n1C" , I found its TGI recorded as > 100 µM
